Hi there, I'd appreciate the recorded ELISA_avg for every entry that follows.
Target: T1, recombinant human CD123-Fc (human, UniProt P26951 19-305)
T1 construct: not shown: Fc part of CD123-Fc
T1 sequence: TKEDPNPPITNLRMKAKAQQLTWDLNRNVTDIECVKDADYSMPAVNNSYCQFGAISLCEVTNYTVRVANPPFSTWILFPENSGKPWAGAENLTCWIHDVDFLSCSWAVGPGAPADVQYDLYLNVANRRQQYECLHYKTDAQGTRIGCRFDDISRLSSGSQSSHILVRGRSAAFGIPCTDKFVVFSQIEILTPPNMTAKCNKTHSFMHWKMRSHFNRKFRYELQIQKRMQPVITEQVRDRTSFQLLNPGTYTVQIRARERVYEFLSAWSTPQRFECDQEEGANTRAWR
Assay: phage ELISA, captured CD123-Fc
One number for each entry, in ratio A450 target/IgG1-Fc.

BINDER	ELISA_avg (ratio A450 target/IgG1-Fc)
SEQ ID NO: 365 (designed binder, D domain, on phage) MGSWHEFDQRLWAIEERLWALGGSEAELAAFEKEIAAFESELQAYKGKGNPEVETLRLYAALIRHDLQAYRHN	3.3

List ELISA_avg for every entry below, keeping the order given.
1. SEQ ID NO: 566 (designed binder, D domain, on phage) MGSWSEFWFRLDAIEDRLWALGGSEAELAEFEDNIALFEYSLQHYKGKGNPEVEALVKEANAIDDELGAYRHN
2. SEQ ID NO: 492 (designed binder, D domain, on phage) MGSWVLFKEELAYIKFELEALGGSEAELALFENVIAIFESNLQNYKGKGNPEVEALRKEAAAIRDELQAYRHN

1. 4.5
2. 3.5

List ELISA_avg for every entry below, keeping the order given.
1. SEQ ID NO: 323 (designed binder, D domain, on phage) MGSWTEFYYRLEAIEDRLWALGGSEAELAAFEKEIAAFESELQAYKGKGNPEVEFLRVEAANIRDMLQAYRHN
2. SEQ ID NO: 367 (designed binder, D domain, on phage) MGSWVEFYSRLDAIEDRLWALGGSEAELAAFEKEIAAFESELQAYKGKGNPEVEWLRIAAASIREDLQAYRHN

7.5
9.4
